Tested on: mouse long-term hematopoietic stem cells
procedure text: Reproducibility and concentration dependence test: 1-week culture of sorted Hoxb5-tri-mCherry mouse long-term hematopoietic stem cells, flow cytometry
Assay type: cell-based
cond: Table 4; compound 0.1 μM; day 7 of culture; n=2
Source text: Mice with insertion of a nucleic acid sequence containing three copies of a gene encoding the fluorescent protein mCherry to the C terminus of the mouse endogenous HoxB5 gene (Hoxb5-tri-mCherry) were used (triple-mCherry Hoxb5 knock-in mice; Non Patent Literature 1). […]
measurement type: mCherry-positive rate (%)
// note: answer is a bare numeric in %

Known results for molecules:
1. C[C@H]1[C@@H](OC2CCCCC2)O[C@@H]2O[C@@]3(C)CC[C@H]4[C@H](C)CC[C@@H]1[C@@]24OO3 :: 0.0
2. C[C@H]1[C@H](Oc2ccccc2)O[C@@H]2O[C@@]3(C)CC[C@H]4[C@H](C)CC[C@@H]1[C@@]24OO3 :: 52.3
3. C[C@H]1[C@@H](F)O[C@@H]2O[C@@]3(C)CC[C@H]4[C@H](C)CC[C@@H]1[C@@]24OO3 :: 0.5

For mouse long-term hematopoietic stem cells, provide mCherry-positive rate of C[C@H]1[C@H](C(=O)O)O[C@@H]2O[C@@]3(C)CC[C@H]4[C@H](C)CC[C@@H]1[C@@]24OO3 please. 3.0

Every entry's value here was drawn from patent US20230094952A1.
